Just for reference, patent US20260374739A1 is where these values come from.

So I've got a bunch of compounds here, and I need their IC50 values.
Biological target: EphB2-EphrinA5 (Mus musculus, UniProt P54763)
Sequence (P54763 19-543 limits assumed): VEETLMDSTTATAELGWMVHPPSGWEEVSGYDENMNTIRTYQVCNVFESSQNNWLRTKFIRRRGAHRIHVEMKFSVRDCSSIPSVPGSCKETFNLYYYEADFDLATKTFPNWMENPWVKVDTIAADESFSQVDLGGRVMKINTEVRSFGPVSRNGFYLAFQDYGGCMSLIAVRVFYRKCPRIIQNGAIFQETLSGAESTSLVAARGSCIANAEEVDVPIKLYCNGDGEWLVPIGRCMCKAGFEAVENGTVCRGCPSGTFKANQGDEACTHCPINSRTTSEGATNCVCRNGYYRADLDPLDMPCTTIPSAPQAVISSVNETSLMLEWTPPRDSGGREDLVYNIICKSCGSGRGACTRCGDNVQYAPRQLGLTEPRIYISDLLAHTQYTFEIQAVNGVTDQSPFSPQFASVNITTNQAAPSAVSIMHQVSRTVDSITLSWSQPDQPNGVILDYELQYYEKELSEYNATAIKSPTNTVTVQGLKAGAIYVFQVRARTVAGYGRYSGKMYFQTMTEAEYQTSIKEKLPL
Test: Octet, immobilized EphB2 binding to human EphrinA5
Settings: mEphB2-hEphrinA5; immobilized mouse EphB2; 50 nM soluble human EphrinA5; dissociation; absolute; read-out: Absolute Dissociation IC50
Respond with the bare value in nM.

// query For the compound Oc1ccc(CN2CCN(Cc3ccc(C(F)(F)F)cc3)CC2)c2cccnc12 [Compound 48] , what IC50 is on record?
// result 1000

// query Same lookup for Oc1c(I)cc(CN2CCOCC2)c2cccnc12 [Compound 8] , please.
// result 90

// query Same lookup for O=S1(=O)CCN(Cc2ccc(O)c3ncccc23)CC1 [Compound 15] , please.
// result 8400

// query Same lookup for O=[N+]([O-])c1cc(CN2CCOCC2)c2cccnc2c1O [Compound 10] , please.
// result 100000
